molecular target: Epidermal growth factor receptor (Homo sapiens, UniProt P00533, L858R); experiment: Inhibition of EGFR L858R mutant (unknown origin) expressed in Sf9 cells by enzyme kinetics assay
Sequence (P00533 25-1210 L858R limits assumed): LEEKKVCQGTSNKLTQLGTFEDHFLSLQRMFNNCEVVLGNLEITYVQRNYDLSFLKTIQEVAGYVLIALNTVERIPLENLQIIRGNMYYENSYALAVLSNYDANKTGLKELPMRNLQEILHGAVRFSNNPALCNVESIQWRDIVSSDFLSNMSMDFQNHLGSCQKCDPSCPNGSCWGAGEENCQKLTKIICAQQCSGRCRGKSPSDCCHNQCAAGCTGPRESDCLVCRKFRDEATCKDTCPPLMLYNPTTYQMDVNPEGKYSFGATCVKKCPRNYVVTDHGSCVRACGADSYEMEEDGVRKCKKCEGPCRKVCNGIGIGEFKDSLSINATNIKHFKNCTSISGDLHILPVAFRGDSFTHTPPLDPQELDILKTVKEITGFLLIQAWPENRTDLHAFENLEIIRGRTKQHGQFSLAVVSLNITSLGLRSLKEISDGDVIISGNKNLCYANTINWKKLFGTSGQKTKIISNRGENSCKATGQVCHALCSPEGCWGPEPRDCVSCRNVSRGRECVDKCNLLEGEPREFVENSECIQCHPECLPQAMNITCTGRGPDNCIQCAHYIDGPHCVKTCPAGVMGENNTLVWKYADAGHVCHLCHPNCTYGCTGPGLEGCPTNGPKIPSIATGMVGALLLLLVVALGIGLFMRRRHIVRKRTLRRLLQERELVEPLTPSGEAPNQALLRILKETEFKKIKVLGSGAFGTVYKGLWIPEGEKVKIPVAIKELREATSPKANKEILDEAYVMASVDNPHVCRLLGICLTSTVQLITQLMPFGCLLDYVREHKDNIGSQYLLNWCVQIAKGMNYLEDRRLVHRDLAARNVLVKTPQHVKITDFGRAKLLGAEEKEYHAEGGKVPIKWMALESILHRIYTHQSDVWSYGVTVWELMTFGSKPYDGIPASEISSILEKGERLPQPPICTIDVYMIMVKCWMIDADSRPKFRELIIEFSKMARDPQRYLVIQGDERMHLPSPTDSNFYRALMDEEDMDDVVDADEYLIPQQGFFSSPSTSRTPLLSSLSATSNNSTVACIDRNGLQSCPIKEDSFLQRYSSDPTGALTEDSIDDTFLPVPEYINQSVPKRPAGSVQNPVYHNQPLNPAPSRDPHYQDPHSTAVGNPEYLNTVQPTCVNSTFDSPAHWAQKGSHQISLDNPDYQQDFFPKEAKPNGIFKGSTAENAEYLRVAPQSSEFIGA
result-type: pKi
Hey, just a heads up that pKi is the negative log base 10 of the concentration in molar.

record-smiles: C=CC(=O)Nc1cccc(Oc2nc(Nc3cc(C)[nH]n3)cc(N3CCN(C)CC3)n2)c1
pKi: 7.15

-- ask Fill in the blank: the reported pKi of C=CC(=O)Nc1cccc(Oc2nc(Nc3n[nH]c4ccccc34)cc(N3CCN(C)CC3)n2)c1 is ____.
-- reply 6.08

* * *

target: Epidermal growth factor receptor (Homo sapiens, UniProt P00533, L858R/T790M)
Sequence (P00533 25-1210 T790M/L858R limits assumed): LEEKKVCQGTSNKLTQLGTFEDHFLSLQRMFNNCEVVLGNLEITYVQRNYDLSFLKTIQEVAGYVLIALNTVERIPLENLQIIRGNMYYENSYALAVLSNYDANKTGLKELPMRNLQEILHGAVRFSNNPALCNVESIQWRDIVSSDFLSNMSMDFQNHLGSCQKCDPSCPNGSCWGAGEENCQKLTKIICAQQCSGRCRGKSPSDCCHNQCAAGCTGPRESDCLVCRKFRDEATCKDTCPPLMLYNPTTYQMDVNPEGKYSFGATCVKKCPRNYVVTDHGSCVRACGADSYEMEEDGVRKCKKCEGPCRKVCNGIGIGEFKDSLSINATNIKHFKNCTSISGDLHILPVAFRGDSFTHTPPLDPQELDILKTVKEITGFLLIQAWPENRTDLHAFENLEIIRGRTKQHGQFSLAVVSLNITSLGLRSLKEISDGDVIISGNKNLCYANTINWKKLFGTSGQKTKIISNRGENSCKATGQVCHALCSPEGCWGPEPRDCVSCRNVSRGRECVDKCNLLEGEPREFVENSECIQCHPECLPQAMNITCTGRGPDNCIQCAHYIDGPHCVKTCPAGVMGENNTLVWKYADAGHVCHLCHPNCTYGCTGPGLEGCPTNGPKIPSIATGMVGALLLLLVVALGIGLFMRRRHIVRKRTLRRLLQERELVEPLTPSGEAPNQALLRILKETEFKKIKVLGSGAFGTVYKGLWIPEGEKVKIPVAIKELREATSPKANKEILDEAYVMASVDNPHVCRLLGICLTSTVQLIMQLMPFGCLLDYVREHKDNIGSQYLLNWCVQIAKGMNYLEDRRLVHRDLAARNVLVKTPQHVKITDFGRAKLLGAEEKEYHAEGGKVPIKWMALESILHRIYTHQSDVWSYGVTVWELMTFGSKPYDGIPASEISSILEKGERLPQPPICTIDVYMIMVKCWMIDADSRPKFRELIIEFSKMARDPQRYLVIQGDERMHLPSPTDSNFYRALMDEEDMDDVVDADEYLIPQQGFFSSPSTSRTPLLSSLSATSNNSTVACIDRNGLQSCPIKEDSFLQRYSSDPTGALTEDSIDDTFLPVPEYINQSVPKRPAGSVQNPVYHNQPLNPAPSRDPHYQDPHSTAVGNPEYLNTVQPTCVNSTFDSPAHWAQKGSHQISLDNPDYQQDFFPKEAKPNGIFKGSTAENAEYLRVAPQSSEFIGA
// returns not satisfied unless IC50 is strictly below 2000 nM, in which case satisfied

Worked examples, 10 molecules total:
record-smiles: Cc1cc(Nc2cc(N3CCN(C)CC3)nc(Oc3cccc(N)c3)n2)n[nH]1
group-label: not satisfied
//
record-smiles: Cc1cc(Nc2cc(N3CCN(C)CC3)nc(Oc3ccccc3[N+](=O)[O-])n2)n[nH]1
group-label: satisfied
//
record-smiles: CCC(=O)Nc1ccc2c(Nc3cc[nH]n3)nc(-c3ccccc3)nc2c1
group-label: not satisfied
//
record-smiles: C=CC(=O)Nc1cccc(-c2nccc(Nc3cc(C)[nH]n3)n2)c1
group-label: not satisfied
//
record-smiles: Cc1cc(Nc2cc(N3CCN(C)CC3)nc(Oc3cccc([N+](=O)[O-])c3)n2)n[nH]1
group-label: satisfied
//
record-smiles: C=CC(=O)Nc1cccc(Oc2nccc(Nc3cc(C)[nH]n3)n2)c1
group-label: satisfied
//
record-smiles: CCC(=O)Nc1cccc(Oc2nc(Nc3cc[nH]n3)cc(N3CCN(C)CC3)n2)c1
group-label: not satisfied
//
record-smiles: C=CC(=O)Nc1cccc(Oc2nc(Nc3cc[nH]n3)cc(N3CCN(C)CC3)n2)c1
group-label: satisfied
//
record-smiles: C=CC(=O)Nc1ccccc1Oc1nc(Nc2cc(C)[nH]n2)cc(N2CCN(C)CC2)n1
group-label: not satisfied
//
record-smiles: Cc1cc(Nc2cc(N3CCN(C)CC3)nc(Oc3ccc([N+](=O)[O-])cc3)n2)n[nH]1
group-label: satisfied

-- ask In the record for C=CC(=O)Nc1cccc(Oc2nc(Nc3n[nH]c4ccc(Br)cc34)cc(N3CCN(C)CC3)n2)c1 , is IC50 less than 2000 nM?
-- reply satisfied

-- ask Likewise for Cc1cc(Nc2cc(N3CCN(C)CC3)nc(Oc3ccc(N)cc3)n2)n[nH]1 ?
-- reply satisfied

-- ask Likewise for CCC(=O)Nc1cccc(Oc2nc(Nc3n[nH]c4ccccc34)cc(N3CCN(C)CC3)n2)c1 ?
-- reply not satisfied

* * *

pIC50: −log10 of the molar value.
So I've got pIC50 readings for Epidermal growth factor receptor (Homo sapiens), take a look.

Use these answered entries as a reference point.
record-smiles: C=CC(=O)Nc1cccc(Oc2nc(Nc3n[nH]c4ccc(Br)cc34)cc(N3CCN(C)CC3)n2)c1
result-type: pIC50
value-observed: 5.54

record-smiles: CCC(=O)Nc1ccccc1-c1nc(Nc2cc[nH]n2)c2ccccc2n1
result-type: pIC50
value-observed: < 5.00

record-smiles: CCC(=O)Nc1ccc2c(Nc3cc[nH]n3)nc(-c3ccccc3)nc2c1
result-type: pIC50
value-observed: < 5.00

Next, consider the following compound.
-- ask Fill in the blank: the reported pIC50 of CCC(=O)Nc1ccc(-c2nc(Nc3cc[nH]n3)c3ccccc3n2)cc1 is ____.
-- reply < 5.00
